assay: Pharmacokinetic study in mice, plasma and brain structures, LC/MS/MS; format: in vivo, Swiss albino mice; conditions: Swiss albino, mouse, hippocampus, ip, 1.25 mg/kg i.p., read-out: MRT, hippocampus (converted)
MEASURED_ATTRIBUTE: MRT (h)

# CPD_SMILES, MEASURED_ATTRIBUTE, QUANTITATIVE_READOUT
data = [
    ("Cn1c(=O)c2c(nc3n(CCCCN4CCN(c5cccc(C(F)(F)F)c5)CC4)ccn23)n(C)c1=O", "MRT", 1.78),
]

* * *

Assay: Pharmacokinetic study in mice, plasma and brain structures, LC/MS/MS
Type: in vivo, Swiss albino mice
Details: Swiss albino, mouse, striatum, ip, 1.25 mg/kg i.p., ratio of AUC values, read-out: Brain structure-to-plasma concentration ratio, striatum (S/P)
Method: Blood samples from the Swiss albino mice were collected at 0 (pre-dose), 5, 15, 30, 60, 120, 240 and 480 min after a compound administration. […] The ion source parameters were as follows: ion spray voltage: 5500 V; nebulizer gas (gas 1): 20 psi; turbo gas (gas 2): 25 psi; temperature of the heated nebulizer: 400°C; curtain gas: 40 psi; collision gas: 6 psi. […] Quantification was done via peak area ratio. […]

# CPD_SMILES, Kp
rows = [
    ("Cn1c(=O)c2c(nc3n(CCCCN4CCN(c5cccc(C(F)(F)F)c5)CC4)ccn23)n(C)c1=O", 8.97),
]

* * *

test: Pharmacokinetic study in mice, plasma and brain structures, LC/MS/MS; assay type: in vivo, Swiss albino mice; conditions: Swiss albino, mouse, plasma, ip, 0.625 mg/kg, 0.625 mg/kg i.p., 5 min, read-out: Concentration, plasma (individual animals)

# CPD_SMILES, concentration at 5 min, ng/mL
rows = [
    ("Cn1c(=O)c2c(nc3n(CCCCN4CCN(c5ccccc5F)CC4)ccn23)n(C)c1=O", 25.4),
]

* * *

assay: Pharmacokinetic study in mice, plasma and brain structures, LC/MS/MS; assay type: in vivo, Swiss albino mice; conditions: Swiss albino, mouse, plasma, ip, 0.625 mg/kg, 0.625 mg/kg i.p., 480 min, read-out: Concentration, plasma (individual animals)

# COMPOUND, UNIT_ABBREV, concentration at 480 min
records = [
    ("Cn1c(=O)c2c(nc3n(CCCCN4CCN(c5ccccc5F)CC4)ccn23)n(C)c1=O [AZ-853]", "ng/mL", 0.25),
]

* * *

experiment: Pharmacokinetic study in mice, plasma and brain structures, LC/MS/MS; type: in vivo, Swiss albino mice; details: Swiss albino, mouse, hippocampus, ip, 1.25 mg/kg, 1.25 mg/kg i.p., 60 min, read-out: Concentration, hippocampus (Mean)

# CPD_SMILES, concentration at 60 min (ng/mL)
data = [
    ("Cn1c(=O)c2c(nc3n(CCCCN4CCN(c5cccc(C(F)(F)F)c5)CC4)ccn23)n(C)c1=O", 96.9),
]

* * *

Test: Pharmacokinetic study in mice, plasma and brain structures, LC/MS/MS
Assay type: in vivo, Swiss albino mice
Conditions: Swiss albino, mouse, plasma, ip, 1.25 mg/kg, 1.25 mg/kg i.p., 30 min, read-out: Concentration, plasma (Mean)
Experimental: Blood samples from the Swiss albino mice were collected at 0 (pre-dose), 5, 15, 30, 60, 120, 240 and 480 min after a compound administration. […] The ion source parameters were as follows: ion spray voltage: 5500 V; nebulizer gas (gas 1): 20 psi; turbo gas (gas 2): 25 psi; temperature of the heated nebulizer: 400°C; curtain gas: 40 psi; collision gas: 6 psi. […] Quantification was done via peak area ratio. […]

# CPD_SMILES, UNIT_ABBREV, concentration at 30 min
records = [
    ("Cn1c(=O)c2c(nc3n(CCCCN4CCN(c5cccc(C(F)(F)F)c5)CC4)ccn23)n(C)c1=O", "ng/mL", 24.8),
]

* * *

Experiment: Pharmacokinetic study in mice, plasma and brain structures, LC/MS/MS
Assay type: in vivo, Swiss albino mice
Settings: Swiss albino, mouse, frontal cortex, ip, 1.25 mg/kg, 1.25 mg/kg i.p., 120 min, read-out: Concentration, frontal cortex (individual animals)
Procedure: Blood samples from the Swiss albino mice were collected at 0 (pre-dose), 5, 15, 30, 60, 120, 240 and 480 min after a compound administration. […] The ion source parameters were as follows: ion spray voltage: 5500 V; nebulizer gas (gas 1): 20 psi; turbo gas (gas 2): 25 psi; temperature of the heated nebulizer: 400°C; curtain gas: 40 psi; collision gas: 6 psi. […] Quantification was done via peak area ratio. […]
MEASURED_ATTRIBUTE: concentration at 120 min (ng/mL)

# CPD_SMILES, QUANTITATIVE_READOUT
data = [
    ("Cn1c(=O)c2c(nc3n(CCCCN4CCN(c5cccc(C(F)(F)F)c5)CC4)ccn23)n(C)c1=O", 40.3),
]

* * *

assay: Pharmacokinetic study in mice, plasma and brain structures, LC/MS/MS; type: in vivo, Swiss albino mice; conditions: Swiss albino, mouse, striatum, ip, 1.25 mg/kg, 1.25 mg/kg i.p., 15 min, read-out: Concentration, striatum (individual animals)
MEASURED_ATTRIBUTE: concentration at 15 min

# COMPOUND, RESULT
measured = [
    ("Cn1c(=O)c2c(nc3n(CCCCN4CCN(c5cccc(C(F)(F)F)c5)CC4)ccn23)n(C)c1=O [AZ-861]", "377 ng/mL"),
]

* * *

Test: Pharmacokinetic study in mice, plasma and brain structures, LC/MS/MS
Format: in vivo, Swiss albino mice
Settings: Swiss albino, mouse, frontal cortex, ip, 1.25 mg/kg, 1.25 mg/kg i.p., read-out: Cmax, frontal cortex
Procedure: Blood samples from the Swiss albino mice were collected at 0 (pre-dose), 5, 15, 30, 60, 120, 240 and 480 min after a compound administration. […] The ion source parameters were as follows: ion spray voltage: 5500 V; nebulizer gas (gas 1): 20 psi; turbo gas (gas 2): 25 psi; temperature of the heated nebulizer: 400°C; curtain gas: 40 psi; collision gas: 6 psi. […] Quantification was done via peak area ratio. […]
MEASURED_ATTRIBUTE: Cmax

# CPD_SMILES, RESULT
measured = [
    ("Cn1c(=O)c2c(nc3n(CCCCN4CCN(c5cccc(C(F)(F)F)c5)CC4)ccn23)n(C)c1=O", "355 ng/g"),
]

* * *

Experiment: Pharmacokinetic study in mice, plasma and brain structures, LC/MS/MS
Type: in vivo, Swiss albino mice
Conditions: Swiss albino, mouse, striatum, ip, 1.25 mg/kg, 1.25 mg/kg i.p., 480 min, read-out: Concentration, striatum (individual animals)
Procedure: Blood samples from the Swiss albino mice were collected at 0 (pre-dose), 5, 15, 30, 60, 120, 240 and 480 min after a compound administration. […] The ion source parameters were as follows: ion spray voltage: 5500 V; nebulizer gas (gas 1): 20 psi; turbo gas (gas 2): 25 psi; temperature of the heated nebulizer: 400°C; curtain gas: 40 psi; collision gas: 6 psi. […] Quantification was done via peak area ratio. […]

# MOLECULE, concentration at 480 min
data = [
    ("Cn1c(=O)c2c(nc3n(CCCCN4CCN(c5cccc(C(F)(F)F)c5)CC4)ccn23)n(C)c1=O [AZ-861]", "1.65 ng/mL"),
]

* * *

assay: Pharmacokinetic study in mice, plasma and brain structures, LC/MS/MS; assay type: in vivo, Swiss albino mice; conditions: Swiss albino, mouse, plasma, ip, 0.625 mg/kg, 0.625 mg/kg i.p., 30 min, read-out: Concentration, plasma (Mean)

# CPD_SMILES, concentration at 30 min, ng/mL
rows = [
    ("Cn1c(=O)c2c(nc3n(CCCCN4CCN(c5ccccc5F)CC4)ccn23)n(C)c1=O", 7.76),
]

* * *

test: Pharmacokinetic study in mice, plasma and brain structures, LC/MS/MS; type: in vivo, Swiss albino mice; conditions: Swiss albino, mouse, frontal cortex, ip, 1.25 mg/kg, 1.25 mg/kg i.p., 240 min, read-out: Concentration, frontal cortex (individual animals)

# COMPOUND, UNIT_ABBREV, concentration at 240 min
data = [
    ("Cn1c(=O)c2c(nc3n(CCCCN4CCN(c5cccc(C(F)(F)F)c5)CC4)ccn23)n(C)c1=O [AZ-861]", "ng/mL", 9.95),
]

* * *

assay: Pharmacokinetic study in mice, plasma and brain structures, LC/MS/MS; assay type: in vivo, Swiss albino mice; settings: Swiss albino, mouse, hippocampus, ip, 1.25 mg/kg, 1.25 mg/kg i.p., read-out: Cmax, hippocampus

# CPD_SMILES, UNIT_ABBREV, Cmax
records = [
    ("Cn1c(=O)c2c(nc3n(CCCCN4CCN(c5cccc(C(F)(F)F)c5)CC4)ccn23)n(C)c1=O", "ng/g", 308),
]

* * *

Assay: Pharmacokinetic study in mice, plasma and brain structures, LC/MS/MS
Type: in vivo, Swiss albino mice
Conditions: Swiss albino, mouse, striatum, ip, 0.625 mg/kg, 0.625 mg/kg i.p., 60 min, read-out: Concentration, striatum (individual animals)
Method: Blood samples from the Swiss albino mice were collected at 0 (pre-dose), 5, 15, 30, 60, 120, 240 and 480 min after a compound administration. […] The ion source parameters were as follows: ion spray voltage: 5500 V; nebulizer gas (gas 1): 20 psi; turbo gas (gas 2): 25 psi; temperature of the heated nebulizer: 400°C; curtain gas: 40 psi; collision gas: 6 psi. […] Quantification was done via peak area ratio. […]

# CPD_SMILES, UNIT_ABBREV, concentration at 60 min
records = [
    ("Cn1c(=O)c2c(nc3n(CCCCN4CCN(c5ccccc5F)CC4)ccn23)n(C)c1=O", "ng/mL", 78.3),
]
